Origin of the recorded values: patent US20260209183A1

- subjectOfTest: human GPR68 (Homo sapiens, UniProt Q15743)
- Sequence (Q15743 whole entry): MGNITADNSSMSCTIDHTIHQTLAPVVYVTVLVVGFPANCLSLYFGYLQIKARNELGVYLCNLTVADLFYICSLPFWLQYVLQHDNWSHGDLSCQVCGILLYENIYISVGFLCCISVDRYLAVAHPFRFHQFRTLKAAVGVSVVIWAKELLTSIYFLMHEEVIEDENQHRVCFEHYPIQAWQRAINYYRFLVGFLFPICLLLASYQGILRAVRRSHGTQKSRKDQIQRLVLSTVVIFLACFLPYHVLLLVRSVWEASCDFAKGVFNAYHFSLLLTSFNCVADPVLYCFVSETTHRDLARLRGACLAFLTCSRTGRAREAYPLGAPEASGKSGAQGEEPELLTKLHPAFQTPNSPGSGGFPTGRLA
- methodDescription: GPR68 cAMP GloSensor assay
- testSettings: HEK293T cells transiently transfected with GPR68 and GloSensor-22F cAMP reporter; activation at pH 6.0; 10 μM top, 3-fold, 10 points, in duplicate
valueKind: IC50 (µM)
// note: answer is a bare numeric in µM

Check out these entries, answers already filled in.
> print(dat)
                       smilesrepresentation  unitssymbol   val
1  O=C(/C=C/c1ccc2c(cnn2CC2CC2)c1)Nc1ccccc1           µM  2.08
2  O=C(/C=C/c1ccc2c(cnn2CC2CC2)c1)Nc1ccccc1-c1n[nH]c(=O)o1           µM  5.72
3  O=C(/C=C/c1ccc2c(cnn2CC2CC2)c1)Nc1ccccc1-c1nnn[nH]1           µM   6.9
4  O=C(/C=C/c1ccc2c(cnn2CC2CC2)c1)Nc1ncccc1F           µM    17

Let us move to another entry and its IC50.
Value of IC50 reported for the compound O=C(/C=C/c1ccc2c(cnn2CC2CC2)c1)Nc1cccc(C(=O)O)n1 is 3.82

###

In this section we review reported pIC50 values for a set of compounds.
- subjectOfTest: human GPR68 (Homo sapiens)
- methodDescription: GPR68 cAMP GloSensor assay
- testSettings: HEK293T cells transiently transfected with GPR68 and GloSensor-22F cAMP reporter; activation at pH 6.0; 10 μM top, 3-fold, 10 points, in duplicate
Please report pIC50 as the negative decimal logarithm of the molar concentration, giving only the number.

> print(dat)
                                   compound               subjectoftest   val
1       Cn1ncc2cc(/C=C/C(=O)Nc3ccccn3)ccc21  human GPR68 (Homo sapiens)  5.46
2  CN(C)S(=O)(=O)NC(=O)c1ccccc1NC(=O)/C=C/c1ccc2c(cnn2CC2CC2)c1  human GPR68 (Homo sapiens)  5.15
3  O=C(/C=C/c1ccc2c(cnn2CC2CC2)c1)Nc1c(F)cccc1C(=O)O  human GPR68 (Homo sapiens)  4.94
4  O=C(/C=C/c1ccc2c(cnn2CC2CC2)c1)Nc1ccc(F)cn1  human GPR68 (Homo sapiens)  4.83
5  O=C(/C=C/c1ccc2c(cnn2CC2CC2)c1)Nc1ccccc1F  human GPR68 (Homo sapiens)  6.06
6  O=C(/C=C/c1cc2cnn(CC3CC3)c2cc1F)Nc1ccccc1C(=O)O  human GPR68 (Homo sapiens)  5.89
7  O=C(/C=C/c1ccc2c(cnn2CC2CC2)c1)Nc1cc(F)ccc1C(=O)O  human GPR68 (Homo sapiens)  5.45
8  O=C(/C=C/c1ccc2c(cnn2CC2CC2)c1)Nc1ccccc1-c1noc(=O)[nH]1  human GPR68 (Homo sapiens)  5.32

Now examine the next entry.
Form: compound = O=C(/C=C/c1ccc2c(cnn2CC2CC2)c1)NC1C2CC3CC(C2)CC1C3 (stereo not drawn) ; pIC50 = 5.01

###

Listing: pIC50 of selected molecules
- subjectOfTest: human GPR68 (Homo sapiens, UniProt Q15743)
- methodDescription: GPR68 cAMP GloSensor assay
- testSettings: HEK293T cells transiently transfected with GPR68 and GloSensor-22F cAMP reporter; activation at pH 6.0; 10 μM top, 3-fold, 10 points, in duplicate
Note on units: pIC50 is unitless, being -log10 of a concentration expressed in mol/L.

> print(dat)
                                   molecule   val
1  O=C(/C=C/c1ccc2c(cnn2CC2CC2)c1)Nc1ccccn1 [Compound 5]  5.85
2  O=C(/C=C/c1ccc2c(cnn2CC2CC2)c1)Nc1ccccc1C(=O)O [Compound 6]  5.77
3  O=C(/C=C/c1ccc2c(cnn2CC2CC2)c1)Nc1cccnc1C(=O)O [Compound 7]  5.69
4  O=C(/C=C/c1ccc2c(cnn2CC2CC2)c1)Nc1sccc1C(=O)O [Compound 1]  6.23
5  O=C(/C=C/c1ccc2c(cnn2CC2CC2)c1)Nc1ccccc1NS(=O)(=O)CC(F)(F)F [Compound 12]  5.35
6  NS(=O)(=O)c1ccccc1NC(=O)/C=C/c1ccc2c(cnn2CC2CC2)c1 [Compound 18]  5.13
7  O=C(O)c1nn(C(=O)/C=C/c2ccc3c(cnn3CC3CC3)c2)c2ccccc12 [Compound 15]  5.18
8  O=C(/C=C/c1ccc2c(cnn2CC2CC2)c1)Nc1ccc(F)cc1C(=O)O [Compound 55]  5.07

For record Cn1ncc2cc(/C=C/C(=O)Nc3ccccc3)ccc21 [Compound 11] the listed pIC50 is 5.42
